target: Human B0AT1 (Homo sapiens (Human)); experiment: hB0AT1 inhibitory test (phenylalanine uptake); conditions: Human B0AT1 stable expression CHO cells; [3H]-L-phenylalanine uptake, phenylalanine 0.25 mM
Sequence (Q695T7 whole entry): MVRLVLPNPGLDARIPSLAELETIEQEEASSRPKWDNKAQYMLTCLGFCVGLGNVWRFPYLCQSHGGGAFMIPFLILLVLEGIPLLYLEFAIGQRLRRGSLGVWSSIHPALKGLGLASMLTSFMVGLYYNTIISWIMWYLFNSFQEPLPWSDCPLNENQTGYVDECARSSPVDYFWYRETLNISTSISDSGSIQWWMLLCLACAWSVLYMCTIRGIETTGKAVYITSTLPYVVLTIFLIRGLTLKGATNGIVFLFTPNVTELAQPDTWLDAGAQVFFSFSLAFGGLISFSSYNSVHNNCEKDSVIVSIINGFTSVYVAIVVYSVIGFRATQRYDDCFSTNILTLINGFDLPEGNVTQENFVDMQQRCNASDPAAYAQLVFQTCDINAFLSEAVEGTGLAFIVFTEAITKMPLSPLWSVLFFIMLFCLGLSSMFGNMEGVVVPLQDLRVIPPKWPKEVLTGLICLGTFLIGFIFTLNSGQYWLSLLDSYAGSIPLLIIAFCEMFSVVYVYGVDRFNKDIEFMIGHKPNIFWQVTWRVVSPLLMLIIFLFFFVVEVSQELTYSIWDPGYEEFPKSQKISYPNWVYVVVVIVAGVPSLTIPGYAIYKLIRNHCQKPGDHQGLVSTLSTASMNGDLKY
pIC50: −log10 of the molar value.
Reported pIC50 values for a set of compounds
reported-endpoint: pIC50

[
  {
    "compound": "O=C(/C=C/c1ccc(C(F)(F)F)cc1)NCC(=O)N1CCN2C(=O)CCC2C1 (stereo not drawn) [I-43]",
    "reported-endpoint": "pIC50",
    "value": 7.10
  },
  {
    "compound": "COCCN(Cc1cnccn1)C(=O)CNC(=O)/C=C/c1ccc(C(F)(F)F)cc1 [I-175]",
    "reported-endpoint": "pIC50",
    "value": 7.15
  },
  {
    "compound": "CC1CN(C(=O)CNC(=O)/C=C/c2ccc(C(F)(F)F)cc2)CCN1C (stereo not drawn) [I-6]",
    "reported-endpoint": "pIC50",
    "value": 7.62
  },
  {
    "compound": "CNC(=O)[C@@H]1C[C@H](n2cccn2)CN1C(=O)CNC(=O)/C=C/c1ccc(C(F)(F)F)cc1 [I-216]",
    "reported-endpoint": "pIC50",
    "value": 6.79
  },
  {
    "compound": "COCCN(Cc1cc(OC)ccn1)C(=O)CNC(=O)/C=C/c1ccc(C(F)(F)F)cc1 [I-53]",
    "reported-endpoint": "pIC50",
    "value": 7.27
  },
  {
    "compound": "O=C(/C=C/c1ccc(C(F)(F)F)cc1)NCC(=O)N(CCO)Cc1ccccn1 [I-85]",
    "reported-endpoint": "pIC50",
    "value": 6.73
  },
  {
    "compound": "CN(C)C(=O)[C@H]1CCN(C(=O)CNC(=O)/C=C/c2ccc(C(F)(F)F)cc2)C1 [I-145]",
    "reported-endpoint": "pIC50",
    "value": 5.77
  },
  {
    "compound": "O=C(/C=C/c1ccc(C(F)(F)F)cc1)NCC(=O)N1CCn2ccnc2C1 [I-21]",
    "reported-endpoint": "pIC50",
    "value": 7.19
  },
  {
    "compound": "COCCN(CC(=O)N(C)CCO)C(=O)CNC(=O)/C=C/c1ccc(C(F)(F)F)cc1 [I-148]",
    "reported-endpoint": "pIC50",
    "value": 6.59
  },
  {
    "compound": "N#Cc1cnn2c1CN(C(=O)CNC(=O)/C=C/c1ccc(C(F)(F)F)cc1)CC2 [I-190]",
    "reported-endpoint": "pIC50",
    "value": 7.68
  },
  {
    "compound": "O=C(/C=C/c1ccc(C(F)(F)F)cc1)NCC(=O)N1CCn2nc(C(F)(F)F)nc2C1 [I-172]",
    "reported-endpoint": "pIC50",
    "value": 7.36
  },
  {
    "compound": "CN1CCN(C(=O)CNC(=O)/C=C/c2ccc(OCC(F)(F)C(F)F)cc2)CC1 [I-109]",
    "reported-endpoint": "pIC50",
    "value": 6.57
  },
  {
    "compound": "O=C(/C=C/c1ccc(C(F)(F)F)cc1)NCC(=O)N1CC[C@@H](Cn2cccn2)C1 [I-214]",
    "reported-endpoint": "pIC50",
    "value": 6.14
  },
  {
    "compound": "O=C(/C=C/c1ccc(C(F)(F)F)cc1)NCC(=O)N1CCn2cc(C(=O)O)nc2C1 [I-140]",
    "reported-endpoint": "pIC50",
    "value": 6.48
  },
  {
    "compound": "CNC(=O)c1nc2n(n1)CCN(C(=O)CNC(=O)/C=C/c1ccc(C(F)(F)F)cc1)C2 [I-205]",
    "reported-endpoint": "pIC50",
    "value": 7.06
  },
  {
    "compound": "O=C(/C=C/c1ccc(C(F)(F)F)cc1)NCC(=O)N1CCN2C(=O)OC[C@H]2C1 [I-32]",
    "reported-endpoint": "pIC50",
    "value": 6.67
  },
  {
    "compound": "COCCN(CC1CCOCC1)C(=O)CNC(=O)/C=C/c1ccc(C(F)(F)F)cc1 [I-49]",
    "reported-endpoint": "pIC50",
    "value": 6.11
  },
  {
    "compound": "Cc1nc(-c2ccc(/C=C/C(=O)NCC(=O)N3CCN(C)CC3)cc2)no1 [I-107]",
    "reported-endpoint": "pIC50",
    "value": 5.94
  },
  {
    "compound": "COCC(C)N(Cc1ccccn1)C(=O)CNC(=O)/C=C/c1ccc(C(F)(F)F)cc1 (stereo not drawn) [I-83]",
    "reported-endpoint": "pIC50",
    "value": 7.11
  },
  {
    "compound": "Cc1nc2n(n1)CCN(C(=O)CNC(=O)/C=C/c1ccc(C(F)(F)F)cc1)C2 [I-174]",
    "reported-endpoint": "pIC50",
    "value": 7.32
  },
  {
    "compound": "CN1CCN(C(=O)CNC(=O)/C=C/c2ccc(OCC3CC3)cc2)CC1 [I-114]",
    "reported-endpoint": "pIC50",
    "value": 6.03
  },
  {
    "compound": "O=C(/C=C/c1ccc(C(F)(F)F)cc1)NCC(=O)N1CCn2c(n[nH]c2=O)C1 [I-38]",
    "reported-endpoint": "pIC50",
    "value": 7.34
  },
  {
    "compound": "COCCN(Cc1cccnn1)C(=O)CNC(=O)/C=C/c1ccc(C(F)(F)F)cc1 [I-59]",
    "reported-endpoint": "pIC50",
    "value": 6.30
  },
  {
    "compound": "O=C(/C=C/c1ccc(C(F)(F)F)cc1)NCC(=O)N1CCN2C(=O)NCC2C1 (stereo not drawn) [I-44]",
    "reported-endpoint": "pIC50",
    "value": 6.58
  },
  {
    "compound": "CC1CCN(C(=O)CNC(=O)/C=C/c2ccc(C(F)(F)F)cc2)CC1 [I-26]",
    "reported-endpoint": "pIC50",
    "value": 5.84
  },
  {
    "compound": "CNC(=O)c1cc2n(n1)CCN(C(=O)CNC(=O)/C=C/c1ccc(C(F)(F)F)cc1)C2 [I-203]",
    "reported-endpoint": "pIC50",
    "value": 7.35
  },
  {
    "compound": "COCCN(CC1CCCO1)C(=O)CNC(=O)/C=C/c1ccc(C(F)(F)F)cc1 (stereo not drawn) [I-48]",
    "reported-endpoint": "pIC50",
    "value": 6.27
  },
  {
    "compound": "O=C(/C=C/c1ccc(S(F)(F)(F)(F)F)cc1)NCC(=O)N1CCc2cc(C(=O)O)ccc2C1 [I-276]",
    "reported-endpoint": "pIC50",
    "value": 7.06
  },
  {
    "compound": "Cn1ncc2c1CN(C(=O)CNC(=O)/C=C/c1ccc(C(F)(F)F)cc1)C2 [I-66]",
    "reported-endpoint": "pIC50",
    "value": 6.91
  },
  {
    "compound": "O=C(/C=C/c1ccc(C(F)(F)F)cc1)NCC(=O)N1CCc2[nH]nnc2C1 [I-98]",
    "reported-endpoint": "pIC50",
    "value": 7.11
  },
  {
    "compound": "O=C(/C=C/c1ccc(C(F)(F)F)cc1)NCC(=O)N1CCc2cc(C(=O)O)ccc2C1 [I-277]",
    "reported-endpoint": "pIC50",
    "value": 6.84
  },
  {
    "compound": "CN(CCS(C)(=O)=O)C(=O)CNC(=O)/C=C/c1ccc(C(F)(F)F)cc1 [I-46]",
    "reported-endpoint": "pIC50",
    "value": 6.74
  },
  {
    "compound": "O=C(/C=C/c1ccc(C(F)(F)F)cc1)NCC(=O)N1CCCc2cnccc21 [I-186]",
    "reported-endpoint": "pIC50",
    "value": 8.00
  },
  {
    "compound": "O=C(/C=C/c1ccc(C(F)(F)F)cc1)NCC(=O)N1CNC(=O)C1 [I-31]",
    "reported-endpoint": "pIC50",
    "value": 6.97
  },
  {
    "compound": "O=C(/C=C/c1ccc(C(F)(F)F)cc1)NCC(=O)N1CCc2nc(C(=O)O)ccc2C1 [I-263]",
    "reported-endpoint": "pIC50",
    "value": 6.70
  },
  {
    "compound": "O=C(/C=C/c1ccc(C(F)(F)F)cc1)NCC(=O)N1CCc2c(cccc2C(=O)O)C1 [I-271]",
    "reported-endpoint": "pIC50",
    "value": 6.16
  }
]
